- test: Hydroxyl free radical scavenging activity (DMPO signal peak height)
- Format: biochemical
- stated_conditions: n = 6; read-out: EC50 of scavenging •OH
measured_parameter: EC50 (µM)

[
  {
    "line_notation": "CC[C@H](C)[C@H](NC(=O)[C@H](C)NC(=O)[C@@H]1CCCN1)C(=O)NCCCC[C@H](NC(=O)[C@@H]1Cc2cc(O)c(O)cc2C(C)(C)N1)C(=O)O",
    "EC50 [µM]": 495
  },
  {
    "line_notation": "C[C@H](NC(=O)[C@@H]1CCCN1)C(=O)N[C@@H](CC(=O)O)C(=O)NCCCC[C@H](NC(=O)[C@@H]1Cc2cc(O)c(O)cc2C(C)(C)N1)C(=O)O",
    "EC50 [µM]": 396
  },
  {
    "line_notation": "C[C@H](NC(=O)[C@@H]1CCCN1)C(=O)N[C@@H](CCC(=O)O)C(=O)NCCCC[C@H](NC(=O)[C@@H]1Cc2cc(O)c(O)cc2C(C)(C)N1)C(=O)O",
    "EC50 [µM]": 400
  },
  {
    "line_notation": "CC(C)C[C@H](NC(=O)[C@H](C)NC(=O)[C@@H]1CCCN1)C(=O)NCCCC[C@H](NC(=O)[C@@H]1Cc2cc(O)c(O)cc2C(C)(C)N1)C(=O)O",
    "EC50 [µM]": 489
  }
]
